B1: Lysozyme C, P61626 (parent)
chain: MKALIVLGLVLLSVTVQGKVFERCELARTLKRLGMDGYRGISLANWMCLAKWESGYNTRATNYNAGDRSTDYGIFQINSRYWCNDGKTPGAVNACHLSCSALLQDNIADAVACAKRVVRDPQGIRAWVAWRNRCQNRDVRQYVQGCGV

variants of: B1; conditions: Homo sapiens; pH 2.7; 64.9 °C; Thermal; DSC; glycine 0.05 M; reversible: yes; structure 1LZ1; whole UniProt chain shown
Quantity kind: ddG of mutation (higher = less stable)
Don't forget the unit after the value.

A selection of reference data follows.
V118F 1.65 kcal/mol
H96G 0.12 kcal/mol
A114M -0.02 kcal/mol
G55Q 0.26 kcal/mol
A50L 0.1 kcal/mol

Value of measured ddG of mutation (higher = less stable) for the entry E53L : 0.53 kcal/mol

Value of measured ddG of mutation (higher = less stable) for the entry Q76G : -1.86 kcal/mol

Value of measured ddG of mutation (higher = less stable) for the entry V92S : 0.38 kcal/mol

Value of measured ddG of mutation (higher = less stable) for the entry R68G : -0.26 kcal/mol
